Biological target: DCAF15 (Homo sapiens, UniProt Q66K64, DEL276-383)
Assay: DCAF15 Displacement Assay (displacement of probe PT7795, FRET)
Settings: competition with 300 nM PT7795 on DDA1-DDB1ΔB-DCAF15Δpro triplex, 18 hours incubation, FRET 665/615
property: IC50 (µM)
Could you give me the number in µM? Just the number is fine.

Report value only: IC50, DCAF15 (Homo sapiens, UniProt Q66K64, DEL276-383), COCCCN1Cc2cc(Cl)c3c(Cl)c(CCCC(N)=O)[nH]c3c2NS1(=O)=O
0.824

Report value only: IC50, DCAF15 (Homo sapiens, UniProt Q66K64, DEL276-383), CNC(=O)c1[nH]c2c3c(cc(Cl)c2c1Cl)CN(CC1CCCN(C(=O)OC(C)(C)C)C1)S(=O)(=O)N3 (stereo not shown)
1.44

Report value only: IC50, DCAF15 (Homo sapiens, UniProt Q66K64, DEL276-383), COCCCCC(=O)N1CCC(CN2Cc3cc(Cl)c4c(Cl)c[nH]c4c3NS2(=O)=O)CC1
0.156

Report value only: IC50, DCAF15 (Homo sapiens, UniProt Q66K64, DEL276-383), CNC(=O)c1[nH]c2c3c(cc(Cl)c2c1Cl)CN(CC1CCCN(C(C)=O)C1)S(=O)(=O)N3 (stereo not shown)
0.679

Report value only: IC50, DCAF15 (Homo sapiens, UniProt Q66K64, DEL276-383), CC(=O)N1CCCC(CN2Cc3cc(Cl)c4c(Cl)c(CCCC(N)=O)[nH]c4c3NS2(=O)=O)C1 (stereo not shown)
0.105

Report value only: IC50, DCAF15 (Homo sapiens, UniProt Q66K64, DEL276-383), CC(C)(C)OC(=O)N1CCCC(CN2Cc3cc(Cl)c4c(Cl)c(CCCC(N)=O)[nH]c4c3NS2(=O)=O)C1 (stereo not shown)
5.78

Report value only: IC50, DCAF15 (Homo sapiens, UniProt Q66K64, DEL276-383), COCCCCCOCCCN1Cc2cc(Cl)c3c(Cl)c[nH]c3c2NS1(=O)=O
2.5

Report value only: IC50, DCAF15 (Homo sapiens, UniProt Q66K64, DEL276-383), COCCOCCOCCCN1Cc2cc(Cl)c3c(Cl)c[nH]c3c2NS1(=O)=O
25

Report value only: IC50, DCAF15 (Homo sapiens, UniProt Q66K64, DEL276-383), O=C(O)CCCc1[nH]c2c3c(cc(Cl)c2c1Cl)CN(CC1CCCNC1)S(=O)(=O)N3 (stereo not shown)
0.277

Report value only: IC50, DCAF15 (Homo sapiens, UniProt Q66K64, DEL276-383), COCCOCC(=O)N1CCCC(CN2Cc3cc(Cl)c4c(Cl)c[nH]c4c3NS2(=O)=O)C1 (stereo not shown)
0.098

Report value only: IC50, DCAF15 (Homo sapiens, UniProt Q66K64, DEL276-383), COCCCN1Cc2cc(Cl)c3c(Cl)c(C(=O)OC)[nH]c3c2NS1(=O)=O
1.3

Report value only: IC50, DCAF15 (Homo sapiens, UniProt Q66K64, DEL276-383), CCOC(=O)c1[nH]c2c3c(cc(Cl)c2c1Cl)CN(CCCOC)S(=O)(=O)N3
2.05

Report value only: IC50, DCAF15 (Homo sapiens, UniProt Q66K64, DEL276-383), CC(C)(C)OC(=O)NCCCCC(=O)N1CCC(CN2Cc3cc(Cl)c4c(Cl)c[nH]c4c3NS2(=O)=O)CC1
0.261

###

Molecular target: DCAF15 RBM39 ternary complex (Homo sapiens, UniProt Q14498+Q66K64, DEL276-383)
Construct: RBM39 (aa 150 to 331; UniProt: Q14498); TEV cleavage site (pGEX4T3 vector); E. coli for the RBM39 fragment according to b294
Experiment: DCAF15 RBM39 Ternary Complex Formation Assay
Conditions: apparent EC50 for compound-induced complex formation, 10 nM DCAF15 triplex, 50 nM RBM39 R1R2, FRET 665/615
Text: Proteins used for the assays were as follows: Human DDA1 (UniProt:Q9BW61), DDB1 (UniPro:Q16531), and DCAF15 (UniProt:Q66K64) coding sequences were cloned into pFastBac1 vectors and were co-expressed in Sf9 cells using Bac-to-Bac baculovirus expression system (Thermo Fisher Scientific). The expression construct for DCAF15 includes a N-terminal His6-tag to facilitate the purification. […]
property: EC50

Solved entries:
CCOC(=O)c1[nH]c2c3c(cc(Cl)c2c1Cl)CN(CCCOC)S(=O)(=O)N3 = 2.51 µM
CC(C)(C)OC(=O)N1CCCC(CN2Cc3cc(Cl)c4c(Cl)c(CCCC(N)=O)[nH]c4c3NS2(=O)=O)C1 (stereo not shown) = > 25 µM
COCCCN1Cc2cc(Cl)c3c(Cl)c(C(=O)OC)[nH]c3c2NS1(=O)=O = > 25 µM

Specify measured EC50 for CC(=O)N1CCCC(CN2Cc3cc(Cl)c4c(Cl)c(CCCC(N)=O)[nH]c4c3NS2(=O)=O)C1 (stereo not shown) .
> 25 µM

Specify measured EC50 for O=C(O)CCCc1[nH]c2c3c(cc(Cl)c2c1Cl)CN(CC1CCCNC1)S(=O)(=O)N3 (stereo not shown) .
> 25 µM

Specify measured EC50 for COCCCN1Cc2cc(Cl)c3c(Cl)c(CCCC(=O)O)[nH]c3c2NS1(=O)=O .
> 25 µM

Specify measured EC50 for CNC(=O)c1[nH]c2c3c(cc(Cl)c2c1Cl)CN(CC1CCCN(C(C)=O)C1)S(=O)(=O)N3 (stereo not shown) .
> 25 µM

Specify measured EC50 for COCCCN1Cc2cc(Cl)c3c(Cl)c(CCCC(N)=O)[nH]c3c2NS1(=O)=O .
> 25 µM

Specify measured EC50 for CNC(=O)c1[nH]c2c3c(cc(Cl)c2c1Cl)CN(CC1CCCN(C(=O)OC(C)(C)C)C1)S(=O)(=O)N3 (stereo not shown) .
> 25 µM

Specify measured EC50 for CNC(=O)c1[nH]c2c3c(cc(Cl)c2c1Cl)CN(CCCOC)S(=O)(=O)N3 .
> 25 µM

Specify measured EC50 for COCCOCC(=O)N1CCC(CN2Cc3cc(Cl)c4c(Cl)c[nH]c4c3NS2(=O)=O)CC1 .
0.0043 µM

###

# IC50 per entry
Biological target: DCAF15 (Homo sapiens, UniProt Q66K64, DEL276-383)
Assay: DCAF15 Displacement Assay (displacement of probe PT7795, FRET)
Conditions: competition with 300 nM PT7795 on DDA1-DDB1ΔB-DCAF15Δpro triplex, 18 hours incubation, FRET 665/615
Could you give me the number in nM? Just the number is fine.

Solved entries:
CNC(=O)c1[nH]c2c3c(cc(Cl)c2c1Cl)CN(CCCOC)S(=O)(=O)N3 [Compound 15] = 1280
COC(=O)CCCc1[nH]c2c3c(cc(Cl)c2c1Cl)CN(Cc1ccnc(O)c1)S(=O)(=O)N3 [Compound 24] = 317

Alright, here's another molecule for you.
Specify measured IC50 for CNC(=O)c1[nH]c2c3c(cc(Cl)c2c1Cl)CN(CC1CCCNC1)S(=O)(=O)N3 (stereo not drawn) [Compound 10] .
2090

###

# EC50 per entry
Target: DCAF15 RBM39 ternary complex (Homo sapiens, UniProt Q14498+Q66K64, DEL276-383)
Construct: RBM39 (aa 150 to 331; UniProt: Q14498); TEV cleavage site (pGEX4T3 vector); E. coli for the RBM39 fragment according to b294
Experiment: DCAF15 RBM39 Ternary Complex Formation Assay
Settings: apparent EC50 for compound-induced complex formation, 10 nM DCAF15 triplex, 50 nM RBM39 R1R2, FRET 665/615

Solved entries:
COC(=O)CCCc1[nH]c2c3c(cc(Cl)c2c1Cl)CN(Cc1ccnc(O)c1)S(=O)(=O)N3 = > 25000 nM
COCCOCCCN1Cc2cc(Cl)c3c(Cl)c[nH]c3c2NS1(=O)=O = 12.7 nM
COCCOCCOCCCN1Cc2cc(Cl)c3c(Cl)c[nH]c3c2NS1(=O)=O = 247 nM
CNC(=O)c1[nH]c2c3c(cc(Cl)c2c1Cl)CN(CC1CCCNC1)S(=O)(=O)N3 (centres unmarked) = > 25000 nM

Alright, here's another molecule for you.
Report value only: EC50, DCAF15 RBM39 ternary complex (Homo sapiens, UniProt Q14498+Q66K64, DEL276-383), COCCCCC(=O)N1CCCC(CN2Cc3cc(Cl)c4c(Cl)c[nH]c4c3NS2(=O)=O)C1 (centres unmarked)
10.6 nM
